assay: Pharmacokinetic: drug concentrations in plasma by LC-MS after subcutaneous administration; conditions: ICR, mouse, plasma, sc, 30 μg/kg, Plasma concentration 12 hr, ICR mice; buprenorphine 30 μg/kg s.c.; Mean
ASSAY_METRIC: concentration at 12 h
Field note: include the unit after the figure.

Query block: Which concentration at 12 h value is on record for CO[C@]12CC[C@@]3(C[C@@H]1[C@](C)(O)C(C)(C)C)[C@H]1Cc4ccc(O)c5c4[C@@]3(CCN1CC1CC1)[C@H]2O5 ?
Result block: 0.0451 ng/mL

###

assay: Pharmacokinetic: drug concentrations in plasma by LC-MS after subcutaneous administration; settings: ICR, mouse, plasma, sc, 30 μg/kg, Plasma concentration 3 hr, ICR mice; buprenorphine 30 μg/kg s.c.; Mean
ASSAY_METRIC: concentration at 3 h (ng/mL)
Report the figure in ng/mL without appending any unit label.

Query block: Which concentration at 3 h value is on record for CO[C@]12CC[C@@]3(C[C@@H]1[C@](C)(O)C(C)(C)C)[C@H]1Cc4ccc(O)c5c4[C@@]3(CCN1CC1CC1)[C@H]2O5 [buprenorphine] ?
Result block: 0.447

###

assay: Pharmacokinetic: drug concentrations in plasma by LC-MS after subcutaneous administration; conditions: ICR, mouse, plasma, sc, 0.3 μg/kg, Plasma concentration 3 hr, ICR mice; buprenorphine 0.3 μg/kg s.c.; individual samples
ASSAY_METRIC: concentration at 3 h
Field note: include the unit after the figure.

Query block: Which concentration at 3 h value is on record for CO[C@]12CC[C@@]3(C[C@@H]1[C@](C)(O)C(C)(C)C)[C@H]1Cc4ccc(O)c5c4[C@@]3(CCN1CC1CC1)[C@H]2O5 [buprenorphine] ?
Result block: 4.36 pg/mL

###

test: Pharmacokinetic: drug concentrations in plasma by LC-MS after subcutaneous administration; settings: ICR, mouse, plasma, sc, 30 μg/kg, Plasma concentration 24 hr, ICR mice; buprenorphine 30 μg/kg s.c.; individual samples
ASSAY_METRIC: concentration at 24 h (pg/mL)
Report the figure in pg/mL without appending any unit label.

Query block: Which concentration at 24 h value is on record for CO[C@]12CC[C@@]3(C[C@@H]1[C@](C)(O)C(C)(C)C)[C@H]1Cc4ccc(O)c5c4[C@@]3(CCN1CC1CC1)[C@H]2O5 ?
Result block: 4.64

###

experiment: Pharmacokinetic: drug concentrations in plasma by LC-MS after subcutaneous administration; details: ICR, mouse, plasma, sc, 10 μg/kg, Plasma concentration 24 hr, ICR mice; buprenorphine 10 μg/kg s.c.; individual samples
ASSAY_METRIC: concentration at 24 h (pg/mL)
Report the figure in pg/mL without appending any unit label.

Query block: Which concentration at 24 h value is on record for CO[C@]12CC[C@@]3(C[C@@H]1[C@](C)(O)C(C)(C)C)[C@H]1Cc4ccc(O)c5c4[C@@]3(CCN1CC1CC1)[C@H]2O5 ?
Result block: 2.33

###

test: Pharmacokinetic: drug concentrations in plasma by LC-MS after subcutaneous administration; details: ICR, mouse, plasma, sc, 1 μg/kg, Plasma concentration 3 hr, ICR mice; buprenorphine 1 μg/kg s.c.; Measured value
ASSAY_METRIC: concentration at 3 h
Field note: include the unit after the figure.

Query block: Which concentration at 3 h value is on record for CO[C@]12CC[C@@]3(C[C@@H]1[C@](C)(O)C(C)(C)C)[C@H]1Cc4ccc(O)c5c4[C@@]3(CCN1CC1CC1)[C@H]2O5 [buprenorphine] ?
Result block: 0.02 ng/mL

###

experiment: Pharmacokinetic: drug concentrations in plasma by LC-MS after subcutaneous administration; conditions: ICR, mouse, plasma, sc, 0.1 μg/kg, Plasma concentration 3 hr, ICR mice; buprenorphine 0.1 μg/kg s.c.; individual samples
ASSAY_METRIC: concentration at 3 h (pg/mL)
Report the figure in pg/mL without appending any unit label.

Query block: Which concentration at 3 h value is on record for CO[C@]12CC[C@@]3(C[C@@H]1[C@](C)(O)C(C)(C)C)[C@H]1Cc4ccc(O)c5c4[C@@]3(CCN1CC1CC1)[C@H]2O5 [buprenorphine] ?
Result block: 2.99

###

experiment: Pharmacokinetic: drug concentrations in plasma by LC-MS after subcutaneous administration; conditions: ICR, mouse, plasma, sc, 3 μg/kg, Plasma concentration 12 hr, ICR mice; buprenorphine 3 μg/kg s.c.; Mean
ASSAY_METRIC: concentration at 12 h (pg/mL)
Report the figure in pg/mL without appending any unit label.

Query block: Which concentration at 12 h value is on record for CO[C@]12CC[C@@]3(C[C@@H]1[C@](C)(O)C(C)(C)C)[C@H]1Cc4ccc(O)c5c4[C@@]3(CCN1CC1CC1)[C@H]2O5 ?
Result block: 3.12

###

assay: Pharmacokinetic: drug concentrations in plasma by LC-MS after subcutaneous administration; conditions: ICR, mouse, plasma, sc, 0.1 ug/kg
ASSAY_METRIC: Cmax (pg/mL)
Report the figure in pg/mL without appending any unit label.

Query block: Which Cmax value is on record for CO[C@]12CC[C@@]3(C[C@@H]1[C@](C)(O)C(C)(C)C)[C@H]1Cc4ccc(O)c5c4[C@@]3(CCN1CC1CC1)[C@H]2O5 ?
Result block: 7.78

###

experiment: Pharmacokinetic: drug concentrations in plasma by LC-MS after subcutaneous administration; details: ICR, mouse, plasma, sc, 10 μg/kg, Plasma concentration 12 hr, ICR mice; buprenorphine 10 μg/kg s.c.; Mean
ASSAY_METRIC: concentration at 12 h (ng/mL)
Report the figure in ng/mL without appending any unit label.

Query block: Which concentration at 12 h value is on record for CO[C@]12CC[C@@]3(C[C@@H]1[C@](C)(O)C(C)(C)C)[C@H]1Cc4ccc(O)c5c4[C@@]3(CCN1CC1CC1)[C@H]2O5 ?
Result block: 0.017

###

assay: Pharmacokinetic: drug concentrations in plasma by LC-MS after subcutaneous administration; settings: ICR, mouse, plasma, sc, 0.3 μg/kg, Plasma concentration 24 hr, ICR mice; buprenorphine 0.3 μg/kg s.c.; Mean
ASSAY_METRIC: concentration at 24 h (ng/mL)
Report the figure in ng/mL without appending any unit label.

Query block: Which concentration at 24 h value is on record for CO[C@]12CC[C@@]3(C[C@@H]1[C@](C)(O)C(C)(C)C)[C@H]1Cc4ccc(O)c5c4[C@@]3(CCN1CC1CC1)[C@H]2O5 ?
Result block: 0

###

assay: Pharmacokinetic: drug concentrations in plasma by LC-MS after subcutaneous administration; settings: ICR, mouse, plasma, sc, 30 μg/kg, Plasma concentration 1 hr, ICR mice; buprenorphine 30 μg/kg s.c.; individual samples
ASSAY_METRIC: concentration at 1 h
Field note: include the unit after the figure.

Query block: Which concentration at 1 h value is on record for CO[C@]12CC[C@@]3(C[C@@H]1[C@](C)(O)C(C)(C)C)[C@H]1Cc4ccc(O)c5c4[C@@]3(CCN1CC1CC1)[C@H]2O5 ?
Result block: 1.32 ng/mL

###

assay: Pharmacokinetic: drug concentrations in plasma by LC-MS after subcutaneous administration; conditions: ICR, mouse, plasma, sc, 30 μg/kg, Plasma concentration 1 hr, ICR mice; buprenorphine 30 μg/kg s.c.; Mean
ASSAY_METRIC: concentration at 1 h (ng/mL)
Report the figure in ng/mL without appending any unit label.

Query block: Which concentration at 1 h value is on record for CO[C@]12CC[C@@]3(C[C@@H]1[C@](C)(O)C(C)(C)C)[C@H]1Cc4ccc(O)c5c4[C@@]3(CCN1CC1CC1)[C@H]2O5 ?
Result block: 1.49

###

test: Pharmacokinetic: drug concentrations in plasma by LC-MS after subcutaneous administration; settings: ICR, mouse, plasma, sc, 0.1 μg/kg, Plasma concentration 3 hr, ICR mice; buprenorphine 0.1 μg/kg s.c.; Mean
ASSAY_METRIC: concentration at 3 h (pg/mL)
Report the figure in pg/mL without appending any unit label.

Query block: Which concentration at 3 h value is on record for CO[C@]12CC[C@@]3(C[C@@H]1[C@](C)(O)C(C)(C)C)[C@H]1Cc4ccc(O)c5c4[C@@]3(CCN1CC1CC1)[C@H]2O5 [buprenorphine] ?
Result block: 1

###

assay: Pharmacokinetic: drug concentrations in plasma by LC-MS after subcutaneous administration; conditions: ICR, mouse, plasma, sc, 0.1 μg/kg, Plasma concentration 1 hr, ICR mice; buprenorphine 0.1 μg/kg s.c.; Mean
ASSAY_METRIC: concentration at 1 h (pg/mL)
Report the figure in pg/mL without appending any unit label.

Query block: Which concentration at 1 h value is on record for CO[C@]12CC[C@@]3(C[C@@H]1[C@](C)(O)C(C)(C)C)[C@H]1Cc4ccc(O)c5c4[C@@]3(CCN1CC1CC1)[C@H]2O5 ?
Result block: 4.85

###

test: Pharmacokinetic: drug concentrations in plasma by LC-MS after subcutaneous administration; settings: ICR, mouse, plasma, sc, 30 μg/kg, Plasma concentration 24 hr, ICR mice; buprenorphine 30 μg/kg s.c.; Mean
ASSAY_METRIC: concentration at 24 h (pg/mL)
Report the figure in pg/mL without appending any unit label.

Query block: Which concentration at 24 h value is on record for CO[C@]12CC[C@@]3(C[C@@H]1[C@](C)(O)C(C)(C)C)[C@H]1Cc4ccc(O)c5c4[C@@]3(CCN1CC1CC1)[C@H]2O5 ?
Result block: 5.51

Data origin, for the record: patent US20250073226A1
